- target_under_test: human DNA (cytosine-5)-methyltransferase I (DNMT1), Δ501DNMT1 (Homo sapiens, UniProt P26358)
- Sequence (P26358 502-1616, stated change not applied): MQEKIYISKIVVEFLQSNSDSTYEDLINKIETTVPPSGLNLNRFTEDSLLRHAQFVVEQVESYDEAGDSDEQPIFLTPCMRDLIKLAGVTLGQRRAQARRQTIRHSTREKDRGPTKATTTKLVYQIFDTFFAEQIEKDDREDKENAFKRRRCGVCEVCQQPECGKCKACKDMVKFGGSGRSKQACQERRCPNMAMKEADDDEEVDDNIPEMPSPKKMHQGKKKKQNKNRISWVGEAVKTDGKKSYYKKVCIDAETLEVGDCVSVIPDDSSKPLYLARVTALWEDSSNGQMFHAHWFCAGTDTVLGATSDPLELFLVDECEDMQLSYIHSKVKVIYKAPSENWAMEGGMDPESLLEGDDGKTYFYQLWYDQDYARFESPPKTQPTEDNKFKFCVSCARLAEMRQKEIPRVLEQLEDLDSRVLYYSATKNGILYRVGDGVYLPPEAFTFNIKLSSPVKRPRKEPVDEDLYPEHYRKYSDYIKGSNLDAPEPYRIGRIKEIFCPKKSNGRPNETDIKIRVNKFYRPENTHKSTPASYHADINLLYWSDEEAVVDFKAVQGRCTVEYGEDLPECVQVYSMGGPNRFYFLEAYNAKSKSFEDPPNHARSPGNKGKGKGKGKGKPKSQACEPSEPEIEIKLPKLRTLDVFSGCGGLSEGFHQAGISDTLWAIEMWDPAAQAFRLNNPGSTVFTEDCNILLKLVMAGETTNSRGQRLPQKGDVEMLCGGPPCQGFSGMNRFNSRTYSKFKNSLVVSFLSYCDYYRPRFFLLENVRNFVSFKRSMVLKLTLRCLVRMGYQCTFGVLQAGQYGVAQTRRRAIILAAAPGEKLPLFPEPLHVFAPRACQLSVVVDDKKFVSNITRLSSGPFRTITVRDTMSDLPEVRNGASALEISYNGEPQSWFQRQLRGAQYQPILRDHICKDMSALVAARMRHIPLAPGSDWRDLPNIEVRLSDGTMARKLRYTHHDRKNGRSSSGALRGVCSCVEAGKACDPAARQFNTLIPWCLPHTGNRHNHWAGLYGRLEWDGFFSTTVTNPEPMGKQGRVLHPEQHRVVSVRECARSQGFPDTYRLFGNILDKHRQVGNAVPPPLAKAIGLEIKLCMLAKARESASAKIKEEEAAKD
property_name: pIC50
Answers are plain numbers, as −log10 of the molar value.

q: Endpoint output: pIC50 of Nc1ncnc2c1ncn2[C@@H]1O[C@H](CO)[C@@H](O)[C@H]1O [adenosine] . Value?
a: 2.52
